Tested on: primary rat hepatocytes
Experiment: Inhibition of lipid synthesis ([1-14C]-acetate incorporation) in primary cultures of rat hepatocytes
Format: cell-based
Conditions: Rattus norvegicus, Hepatocyte, 4 h, 0-300 μM
READOUT LABEL: log10 IC50 (log10 of the value in µM)
# log10 transformed; quantity=IC50; unit=µM

Below, 3 molecules whose answers are already recorded.
CC(CO)(CCCCCNC(=O)NCCCCC(C)(CO)c1ccccc1)c1ccccc1 (stereo not shown)	1.94
CC(CO)(CCCCCNC(=O)NCCCc1ccccc1)c1ccccc1 (stereo not shown)	2.00
COC(=O)CCCNC(=O)NCCCCCC(C)(CO)c1ccccc1 (stereo not shown)	2.01

Problem: Look up log10 IC50 of CC(CO)(CCCCNC(=O)NCCCc1ccccc1)c1ccccc1 (stereo not shown) and report it.
Solution: 2.14

Problem: Answer with the recorded log10 IC50 for the molecule listed here: CC(CO)(CCCCCNC(=O)NCCCCCC(C)(CO)c1ccccc1)c1ccccc1 (stereo not shown)
Solution: 1.59

Problem: Indicate the recorded log10 IC50 value for this molecule: CCOC(=O)CCCCCNC(=O)NCCCCC(C)(CO)c1ccccc1 (stereo not shown)
Solution: 2.11

Problem: Please supply the value of reported log10 IC50 for the item CC(CO)(CCCCNC(=O)NCCc1ccccc1)c1ccccc1 (stereo not shown)
Solution: 2.42

Problem: Quote log10 IC50 reported for `CC(C)(CO)CCCCNC(=O)NCCCCc1ccccc1` please.
Solution: 2.34

Problem: Using the record for CC(C)(CO)CCCCNC(=O)NCCCCC(C)(CO)c1ccccc1 (stereo not shown) , state its measured log10 IC50.
Solution: 0.94

Problem: Read the entry `CCOC(=O)CCCCCNC(=O)NCCCCC(C)(C)CO` and write its reported log10 IC50.
Solution: 1.91
